system: Plasmodium falciparum; test: Antimalarial activity against chloroquine-sensitive Plasmodium falciparum NF54 infected in RBC after 72 hrs by [3H]hypoxanthine incorporation assay in presence of 0.5 % albumax; format: functional, organism-based
experimental-readout: pIC50
One number for each entry, as −log10 of the molar value.

Query (compound): CCN(CC)Cc1cc(Nc2ccc(C(=O)N[C@@H](Cc3ccccc3)[C@H](O)CNC3CCCC3)cc2)ccc1O ; field requested: pIC50
7.11

Fill in pIC50 for each of the 3 compounds listed.
1. CCCN(CCC)C(=O)c1cccc(C(=O)N[C@@H](Cc2ccccc2)[C@H](O)CNC2CCc3ccccc32)c1 (some centres not stated)
2. CN1CCN(c2ccc(C(=O)N[C@@H](Cc3ccccc3)[C@H](O)CNC3CCCC3)cc2)CC1
3. CC1CN(c2ccc(C(=O)N[C@@H](Cc3ccccc3)[C@H](O)CN[C@H](C)c3ccccc3)cc2)CCN1 (some centres not stated)

1. 7.32
2. 7.09
3. 6.72

Fill in pIC50 for each of the 7 compounds listed.
1. CCCN(CCC)C(=O)c1cccc(C(=O)N[C@@H](Cc2ccccc2)[C@H](O)CNC(C)(C)C)c1
2. CCCN(CCC)C(=O)c1cccc(C(=O)N[C@@H](Cc2ccccc2)[C@H](O)CNC2(c3ccccc3)CC2)c1
3. CCCN(CCC)C(=O)c1cccc(C(=O)N[C@@H](Cc2ccccc2)[C@H](O)CNC2CCCCC2)c1
4. C[C@@H](NC[C@@H](O)[C@H](Cc1ccccc1)NC(=O)c1cccc(C(=O)N2CCCCCC2)c1)c1ccccc1
5. Cc1cc(Nc2ccc(C(=O)N[C@@H](Cc3ccccc3)[C@H](O)CN[C@H](C)c3ccccc3)cc2)ccn1
6. C[C@@H](NC[C@@H](O)[C@H](Cc1ccccc1)NC(=O)c1ccc(Nc2ccc(CN3CCCCC3)c(O)c2)cc1)c1ccccc1
7. CC(C)(C)c1ccc(/C=C/C(=O)N[C@@H](Cc2ccccc2)[C@H](O)CNC(C)(C)c2ccccc2)cc1

7.62
6.94
7.85
8.42
8.01
8.44
6.35

Query (compound): CCCN(CCC)C(=O)c1cccc(C(=O)N[C@@H](Cc2ccccc2)[C@H](O)CNC(C)(C)c2ccc(C#N)cc2)c1 ; field requested: pIC50
7.26

* * *

test system: Plasmodium falciparum; experiment: Antimalarial activity against chloroquine-sensitive Plasmodium falciparum NF54 infected in RBC after 24 hrs by [3H]hypoxanthine incorporation assay in presence of 0.5 % albumax; assay type: functional, organism-based
I'd appreciate it if you could supply IC50 values for the items below.
One number for each entry, in nM.

Solved entries:
Query (molecule): Cc1cc(Nc2ccc(C(=O)N[C@@H](Cc3ccccc3)[C@H](O)CN[C@H](C)c3ccccc3)cc2)cc(C)n1 ; field requested: IC50
198

Similarly, CCN(CC)Cc1cc(Nc2ccc(C(=O)N[C@@H](Cc3ccccc3)[C@H](O)CN[C@H](C)c3ccccc3)cc2)ccc1O ?
133

Similarly, C[C@@H](NC[C@@H](O)[C@H](Cc1ccccc1)NC(=O)c1ccc(N(C)c2ccncc2)cc1)c1ccccc1 ?
249

Similarly, C[C@@H](NC[C@@H](O)[C@H](Cc1ccccc1)NC(=O)c1ccc(Nc2ccc(O)c(CN3CCCC3)c2)cc1)c1ccccc1 ?
174

# context switch: different molecule, same IC50
Query (molecule): C[C@@H](NC[C@@H](O)[C@H](Cc1ccccc1)NC(=O)c1ccc(Nc2ccc(CN3CCCCC3)c(O)c2)cc1)c1ccccc1 ; field requested: IC50
25

// data source = ChEMBL document CHEMBL2331413
